- Test system: Candida albicans IFO1270
- ASSAY NOTES: Growth inhibition of Candida albicans in Sabouraud's glucose broth (Test Example 1)
- Type: cell-based
- CONDITION: 10 µg/ml test compound, two days incubation at 37°C under shaking
MEASURED PARAMETER: Growth inhibition ratio 10 µg/ml (%)
Answers are plain numbers, in %.

Please review the following examples before continuing.
C[C@@H](Cc1ccc(F)cc1F)[C@](O)(Cn1cncn1)c1ccc(F)cc1F = 66
C[C@@H](Cc1ccc(C#N)cc1)[C@](O)(Cn1cncn1)c1ccc(F)cc1F = 70
C[C@@H](Cc1ccc(F)cc1)[C@](O)(Cn1cncn1)c1ccc(F)cc1F = 64

For the next question, use this compound.
Problem: Input CC(=O)N1CCN(c2ccc(OC[C@H]3CO[C@](Cn4ccnc4)(c4ccc(Cl)cc4Cl)O3)cc2)CC1 (relative stereo) [A, reference compound] , output reported Growth inhibition ratio 10 µg/ml (%).
Result: 59
